Data provenance: ChEMBL document CHEMBL4261484

experiment: Neurotoxicity in ip dosed mouse assessed as motor impairment measured after 15 mins by rotarod test; conditions: in vivo
Recorded Endpoint: TD50 at 0.25 h (mg/kg)
Quick note: give the figure in mg/kg, leave out the unit.

Q: State its TD50 at 0.25 h: COC[C@@H](NC(C)=O)C(=O)NCc1ccccc1 [LACOSAMIDE]
A: 42.5

----------
assay: Neurotoxicity in ip dosed mouse assessed as motor impairment measured for one min by rotarod test; format: toxicity, organism-based; conditions: in vivo
Parameter TD50 at 1 min: see the listing below.
Answer in mg/kg, number only, no unit symbol.

Below, each entry is followed by its recorded TD50 at 1 min result.
molecule="Cc1cccc(C)c1OCCOCCNCC(O)c1ccccc1 (racemic)" endpoint_value=36
molecule=Cc1cccc(Cl)c1OCCCCN[C@H]1CC[C@H](O)CC1 endpoint_value=50
molecule="Cc1ccc(OCCN[C@H]2CCCC[C@@H]2O)c(C)c1 (racemic)" endpoint_value=76.8
molecule="O=C1NC(=O)C(c2ccccc2)(c2ccccc2)N1 [PHENYTOIN]" endpoint_value=68.7
molecule="Cc1cccc(Cl)c1OCCCCNC(C)CO (racemic)" endpoint_value=45.7

Q: Identify the reported TD50 at 1 min for the following entry. Cc1cccc(C)c1OCCCCNCC(C)O (racemic)
A: 43.3

Q: Tell us which TD50 at 1 min value is on record for Cc1cccc(OCCOCCN2CCCC(O)C2)c1C.Cl (centres undefined)
A: 122

Q: Tell me measured TD50 at 1 min for Cc1ccc(OCCOCCNC(C)CO)c(C)c1 (racemic) please.
A: 109

Q: # return recorded TD50 at 1 min for input Cc1cccc(OCCOCCN[C@H]2CCCC[C@@H]2O)c1C (racemic)
A: 47.4

----------
tested on: Mus musculus; test: Anticonvulsant activity in ip dosed mouse assessed as protection against maximal electroshock-induced seizures; type: functional
Listing of recorded ED50 by entry.
Please give the number followed by its unit.

Study these solved cases before continuing.
compound="Cc1cccc(Cl)c1OCCOCCNCC(O)c1ccccc1 (racemic)" assayed_target="Mus musculus" recorded_endpoint=ED50 endpoint_value="23.9 mg/kg"
compound="Cc1ccc(OCCN[C@H]2CCCC[C@@H]2O)c(C)c1 (racemic)" assayed_target="Mus musculus" recorded_endpoint=ED50 endpoint_value="31.8 mg/kg"
compound="CC(C)NCC(O)COc1cccc2ccccc12 (stereo unspecified)" assayed_target="Mus musculus" recorded_endpoint=ED50 endpoint_value="15 mg/kg"
compound="Cc1cccc(C)c1OCC(C)N (stereo unspecified)" assayed_target="Mus musculus" recorded_endpoint=ED50 endpoint_value="20 mg/kg"
compound="Cc1cccc(Cl)c1OCCCCNC(C)CO (racemic)" assayed_target="Mus musculus" recorded_endpoint=ED50 endpoint_value="19.1 mg/kg"

Q: Could you please provide reported ED50 for Cc1ccc(OCCOCCNC(C)CO)c(C)c1 (racemic) ? Thanks!
A: 27.1 mg/kg

Q: Indicate its recorded ED50; the compound in question is Cc1cccc(C)c1OCCOCCNCC(O)c1ccccc1 (racemic)
A: 13 mg/kg

Q: Give recorded ED50. Cc1cccc(C)c1OCCCCNCC(C)O (racemic)
A: 27.1 mg/kg

Q: Output measured ED50 for this item: Cc1cccc(Cl)c1OCCCCN[C@H]1CC[C@H](O)CC1
A: 41.1 mg/kg

Q: Identify the reported ED50 for the following entry. Cc1cccc(OCCOCCN2CCCC(O)C2)c1C.Cl (stereo unspecified)
A: 68.7 mg/kg

Q: Fill in reported ED50 for this entry: Cc1cccc(OCCOCCN[C@H]2CCCC[C@@H]2O)c1C (racemic)
A: 32.9 mg/kg

----------
experiment: Protection index, ratio of TD50 for neurotoxicity in ip dosed mouse by rotarod test to ED50 for anticonvulsant activity in mouse by maximal electroshock seizure test; format: toxicity, organism-based; conditions: in vivo, read-out: Ratio TD50/ED50
Respond with fulfilled for selectivity ratio values of 2 and above, not fulfilled for values below.

Would you please look over these solved cases?
compound="Cc1ccc(OCCN[C@H]2CCCC[C@@H]2O)c(C)c1 (racemic)" category_label=fulfilled
compound="Cc1cccc(OCCOCCN2CCCC(O)C2)c1C.Cl (stereo unspecified)" category_label="not fulfilled"
compound="Cc1cccc(C)c1OCCOCCNCC(O)c1ccccc1 (racemic)" category_label=fulfilled

Q: Can Cc1cccc(OCCOCCN[C@H]2CCCC[C@@H]2O)c1C (racemic) be said to have selectivity ratio at or above 2?
A: not fulfilled

Q: Would you say O=C1NC(=O)C(c2ccccc2)(c2ccccc2)N1 [PHENYTOIN] shows selectivity ratio at minimum 2?
A: fulfilled

Q: Given Cc1ccc(OCCOCCNC(C)CO)c(C)c1 (racemic) , state whether its selectivity ratio is at least 2.
A: fulfilled

----------
tested on: Mus musculus; assay: Toxicity in mouse at 30 mg/kg, ip measured during maximal electroshock seizure test; type: organism-based; conditions: in vivo
Recorded Endpoint: Activity

molecule="Cc1cccc(C)c1OCCCCNCC(C)O (racemic)" endpoint_value=Non-Toxic
molecule="Cc1cccc(Cl)c1OCCOCCNCC(O)c1ccccc1 (racemic)" endpoint_value=Non-Toxic
molecule=CC[C@@H](CO)NCCCCOc1cc(C)ccc1Cl endpoint_value=Non-Toxic
molecule=CC[C@H](CO)NCCCCOc1cc(C)ccc1Cl endpoint_value=Non-Toxic

Q: Specify measured Activity for CCC(CO)NCCCCOc1cc(C)ccc1Cl (racemic) .
A: Non-Toxic

Q: Give the reported value of Activity for this record: Cc1ccc(Cl)c(OCCCCN[C@H](C)CO)c1
A: Non-Toxic

Q: # return recorded Activity for entry CCC(O)CNCCOCCOc1cc(Cl)ccc1C (racemic)
A: Non-Toxic

Q: Respond only with Activity recorded for Cc1ccc(OCCOCCNC(C)CO)c(C)c1 (racemic)
A: Non-Toxic

Q: Input Cc1ccc(Cl)c(OCCCCNC(C)CO)c1 (racemic) , output reported Activity.
A: Non-Toxic

----------
Each entry below carries its reported Time.
tested on: Mus musculus; experiment: Anticonvulsant activity in mouse assessed as protection against subcutaneous pentylenetetrazole-induced seizures by measuring latency time of tonic seizures at 100 mg/kg, ip measured for 30 mins post pentylenetetrazole challenge at 0.5 hrs after compound dosing (reference value: 562.8 to 614.9 secs); format: functional
Express your answer in s, writing the number without its unit.

Q: # return recorded Time for entry CCC1(C)CC(=O)NC1=O (stereo unspecified) [ETHOSUXIMIDE]
A: 1470

Q: Output Time of Cc1cc(C)c(OCCCN2CCC(O)CC2)c(C)c1
A: 275.4

Q: For the compound Cc1ccc(OCCN[C@H]2CCCC[C@@H]2O)c(C)c1 (racemic) , give its measured Time value.
A: 921

----------
tested on: HepG2; assay: Cytotoxicity against human HepG2 cells assessed as effect on cell viability at 10 to 250 uM after 24 hrs by MTT assay; assay type: cell-based; conditions: hepg2, 24 h
Recorded Endpoint: Activity

compound="Cc1ccc(OCCOCCNC(C)CO)c(C)c1 (racemic)" endpoint_value=Non-Toxic
compound=Cc1cc(C)c(OCCCN2CCC(O)CC2)c(C)c1 endpoint_value=Non-Toxic
compound="Cc1cccc(OCCOCCN2CCCC(O)C2)c1C.Cl (centres undefined)" endpoint_value=Non-Toxic
compound="Cc1ccc(OCCN[C@H]2CCCC[C@@H]2O)c(C)c1 (racemic)" endpoint_value=Non-Toxic

----------
Activity values for the compounds below.
test system: Mus musculus; assay: Anticonvulsant activity in mouse assessed as current strength required to induce tonic hind-limb extension in 50% of the animals at 10 mg/kg, ip by maximal electroshock seizure threshold test (reference value: 6.05 to 8.13 mA); format: functional
Quick reminder: number only, in mA, skip the unit.

Recorded results for 2 compounds are shown here.
compound="Cc1cccc(Cl)c1OCCOCCNCC(O)c1ccccc1 (racemic)" assayed_target="Mus musculus" endpoint_value=11.09
compound=Cc1cc(C)c(OCCCN2CCC(O)CC2)c(C)c1 assayed_target="Mus musculus" endpoint_value=9.15

Q: Quickly give me recorded Activity for Cc1ccc(OCCOCCNC(C)CO)c(C)c1 (racemic)
A: 6.76

----------
// reported selectivity ratio per item
assay: Protection index, ratio of TD50 for neurotoxicity in ip dosed mouse by rotarod test to ED50 for anticonvulsant activity in mouse by maximal electroshock seizure test; format: toxicity, organism-based; details: in vivo, read-out: Ratio TD50/ED50
Number only, no unit.

Completed entries (count: 4):
molecule="Cc1cccc(C)c1OCCCCNCC(C)O (racemic)" endpoint_value=1.6
molecule="Cc1cccc(Cl)c1OCCCCNC(C)CO (racemic)" endpoint_value=2.4
molecule=Cc1cccc(Cl)c1OCCCCN[C@H]1CC[C@H](O)CC1 endpoint_value=1.22
molecule="Cc1cccc(Cl)c1OCCOCCNCC(O)c1ccccc1 (racemic)" endpoint_value=4.3

Please turn your attention to the following entry.
Q: Please give the documented selectivity ratio of CC[C@@H](CO)NCCOc1c(C)cccc1C
A: 4.55

----------
tested on: Mus musculus; test: Anticonvulsant activity in mouse assessed as protection against subcutaneous pentylenetetrazole-induced seizures by measuring latency time of tonic seizures at 100 mg/kg, ip measured for 30 mins post pentylenetetrazole challenge at 0.5 hrs after compound dosing (reference value: 562.8 to 614.9 secs); format: functional
Recorded Endpoint: Time
Write the quantity with the unit trailing the number.

compound="Cc1cccc(OCCOCCN2CCCC(O)C2)c1C.Cl (stereo not drawn)" recorded_endpoint=Time endpoint_value="564.8 s"
compound="Cc1ccc(OCCOCCNC(C)CO)c(C)c1 (racemic)" recorded_endpoint=Time endpoint_value="1269 s"

Now let's try a different one.
Q: Return the recorded Time value; entry: Cc1cccc(Cl)c1OCCOCCNCC(O)c1ccccc1 (racemic)
A: 219.6 s
